Every entry's value here was drawn from patent US20260042743A1.

Test system: SARS-CoV-2
procedureText: cell-based anti-viral assay using Vero E6 cell line, viral RNA by qRT-PCR
cond: Severe acute respiratory syndrome coronavirus 2, Vero C1008; 5 μM compound, Vero E6 cells, 48 h, calculated from ΔCt; read-out: % SARS-CoV-2 Inactivation (5 μM)
The entries below come with measured inhibition at 5 µM values attached.

Tell me measured inhibition at 5 µM for FC(F)(F)c1cc(C(F)(F)F)c2nc(Nc3ccc4ccccc4c3)[nH]c2c1 please.
< 3%

Tell me measured inhibition at 5 µM for CC(C)Nc1nc2c(C(F)(F)F)cc(C(F)(F)F)cc2[nH]1 please.
> 90%

Further cases:
Tell me measured inhibition at 5 µM for Fc1cc(F)cc(Nc2nc3c(C(F)(F)F)cc(C(F)(F)F)cc3[nH]2)c1 please.
> 99%

Tell me measured inhibition at 5 µM for FC(F)(F)c1cc(C(F)(F)F)c2nc(Nc3cccnc3)[nH]c2c1 please.
< 3%

Tell me measured inhibition at 5 µM for CN(c1cc(C(F)(F)F)cc(C(F)(F)F)c1)c1nc2c(C(F)(F)F)cc(C(F)(F)F)cc2[nH]1 please.
> 99.9%

Tell me measured inhibition at 5 µM for COc1ccc(Nc2nc3c(C(F)(F)F)cc(C(F)(F)F)cc3[nH]2)cc1Br please.
> 95%

Tell me measured inhibition at 5 µM for FC(F)(F)c1cc(C(F)(F)F)c2nc(NCc3ccccc3)[nH]c2c1 please.
< 3%

Tell me measured inhibition at 5 µM for FC(F)(F)c1cc(C(F)(F)F)c2nc(Nc3ccccc3C(F)(F)F)[nH]c2c1 please.
< 3%

Tell me measured inhibition at 5 µM for Fc1cc2nc(Nc3ccccc3)[nH]c2cc1F please.
> 90%

###

System: SARS-CoV-2
procedureText: cell-based anti-viral assay using Vero E6 cell line, viral RNA by qRT-PCR
cond: 5 μM compound, Vero E6 cells, 48 h, increase in Ct vs no-drug control
Rule for this label: T means ΔCt (5 μM) is less than 6; F means ΔCt (5 μM) is at least 6.

Input FC(F)(F)c1cc(C(F)(F)F)c2nc(Nc3ccccc3)[nH]c2c1 ; condition: ΔCt (5 μM) strictly below 6. Does it hold?
T

Input Fc1ccc(Nc2nc3c(C(F)(F)F)cc(C(F)(F)F)cc3[nH]2)cc1 ; condition: ΔCt (5 μM) strictly below 6. Does it hold?
T

Input Fc1cc(F)cc(Nc2nc3c(C(F)(F)F)cc(C(F)(F)F)cc3[nH]2)c1 ; condition: ΔCt (5 μM) strictly below 6. Does it hold?
F

Input CC(C)c1ccccc1Nc1nc2c(C(F)(F)F)cc(C(F)(F)F)cc2[nH]1 ; condition: ΔCt (5 μM) strictly below 6. Does it hold?
T

Input Fc1cc2nc(Nc3cccc(C(F)(F)F)c3)[nH]c2cc1F ; condition: ΔCt (5 μM) strictly below 6. Does it hold?
T

Input FC(F)(F)c1cccc(Nc2nc3c(C(F)(F)F)cc(C(F)(F)F)cc3[nH]2)c1 ; condition: ΔCt (5 μM) strictly below 6. Does it hold?
F

###

Tested on: SARS-CoV-2
procedureText: cell-based anti-viral assay using Vero E6 cell line, viral RNA by qRT-PCR
cond: Severe acute respiratory syndrome coronavirus 2, Vero C1008; 1 μM compound, Vero E6 cells, 48 h, calculated from ΔCt; read-out: % SARS-CoV-2 Inactivation (1 μM)
resultType: inhibition at 1 µM

Give the observed inhibition at 1 µM of CN(c1cc(C(F)(F)F)cc(C(F)(F)F)c1)c1nc2c(C(F)(F)F)cc(C(F)(F)F)cc2[nH]1 for SARS-CoV-2.
> 90%

Give the observed inhibition at 1 µM of COc1ccc2nc(Nc3cc(C(F)(F)F)cc(C(F)(F)F)c3)[nH]c2c1 for SARS-CoV-2.
> 95%

Give the observed inhibition at 1 µM of CN(c1cc(C(F)(F)F)cc(C(F)(F)F)c1)c1nc2cccc(C(F)(F)F)c2[nH]1 for SARS-CoV-2.
< 3%

Give the observed inhibition at 1 µM of FC(F)(F)c1ccc(Nc2nc3ccc(C(F)(F)F)cc3[nH]2)cc1 for SARS-CoV-2.
< 3%

Give the observed inhibition at 1 µM of FC(F)(F)c1cccc(Nc2nc3c(C(F)(F)F)cc(C(F)(F)F)cc3[nH]2)c1 for SARS-CoV-2.
99%

Give the observed inhibition at 1 µM of Fc1cc(F)cc(Nc2nc3c(C(F)(F)F)cc(C(F)(F)F)cc3[nH]2)c1 for SARS-CoV-2.
90%

Give the observed inhibition at 1 µM of Fc1ccc(Nc2nc3c(C(F)(F)F)cc(C(F)(F)F)cc3[nH]2)cc1 for SARS-CoV-2.
< 3%

Next up:
Give the observed inhibition at 1 µM of CC(C)Nc1nc2c(C(F)(F)F)cc(C(F)(F)F)cc2[nH]1 for SARS-CoV-2.
90%

###

The entries below come with measured inhibition at 1 µM values attached.
System: SARS-CoV-2
procedureText: cell-based anti-viral assay using Vero E6 cell line, viral RNA by qRT-PCR
cond: Severe acute respiratory syndrome coronavirus 2, Vero C1008; 1 μM compound, Vero E6 cells, 48 h, calculated from ΔCt; read-out: % SARS-CoV-2 Inactivation (1 μM)

Observe how each entry below is paired with its result.
Tell me measured inhibition at 1 µM for FC(F)(F)c1cc(C(F)(F)F)c2nc(N3CCCCC3)[nH]c2c1 please.
< 3%

Tell me measured inhibition at 1 µM for CN(c1ccc(C(F)(F)F)cc1)c1nc2cccc(C(F)(F)F)c2[nH]1 please.
< 3%

Tell me measured inhibition at 1 µM for Fc1cc2nc(Nc3cccc(C(F)(F)F)c3)[nH]c2cc1F please.
< 3%

Tell me measured inhibition at 1 µM for FC(F)(F)Oc1cccc(Nc2nc3c(C(F)(F)F)cc(C(F)(F)F)cc3[nH]2)c1 please.
90%

Tell me measured inhibition at 1 µM for Cn1c(Nc2ccccc2)nc2cc(F)c(F)cc21 please.
< 3%

Tell me measured inhibition at 1 µM for FC(F)(F)c1cc(C(F)(F)F)c2nc(NC3CCOCC3)[nH]c2c1 please.
< 3%

Further cases:
Tell me measured inhibition at 1 µM for FC(F)(F)c1cc(C(F)(F)F)c2nc(Nc3cccnc3)[nH]c2c1 please.
< 3%

Tell me measured inhibition at 1 µM for C[C@@H](Nc1nc2c(C(F)(F)F)cc(C(F)(F)F)cc2[nH]1)c1cccc2ccccc12 please.
< 3%

Tell me measured inhibition at 1 µM for Cn1c(Nc2cc(C(F)(F)F)cc(C(F)(F)F)c2)nc2cc(F)c(F)cc21 please.
< 3%

Tell me measured inhibition at 1 µM for COc1ccc(Nc2nc3c(C(F)(F)F)cc(C(F)(F)F)cc3[nH]2)cc1Br please.
< 3%

Tell me measured inhibition at 1 µM for CC(C)c1ccccc1Nc1nc2c(C(F)(F)F)cc(C(F)(F)F)cc2[nH]1 please.
< 3%

###

Tested on: SARS-CoV-2
procedureText: cell-based anti-viral assay using Vero E6 cell line, viral RNA by qRT-PCR
cond: 5 μM compound, Vero E6 cells, 48 h, increase in Ct vs no-drug control
Rule for this label: 1.0 means ΔCt (5 μM) is less than 5; 0.0 means ΔCt (5 μM) is at least 5.

Worked examples follow.
Input Fc1ccccc1Nc1nc2c(C(F)(F)F)cc(C(F)(F)F)cc2[nH]1 [Example 23] ; condition: ΔCt (5 μM) strictly below 5. Does it hold?
0.0

Input FC(F)(F)Oc1cccc(Nc2nc3c(C(F)(F)F)cc(C(F)(F)F)cc3[nH]2)c1 [Example 22] ; condition: ΔCt (5 μM) strictly below 5. Does it hold?
0.0

Input FC(F)(F)Oc1ccc2nc(Nc3cc(C(F)(F)F)cc(C(F)(F)F)c3)[nH]c2c1 [Example 29] ; condition: ΔCt (5 μM) strictly below 5. Does it hold?
0.0

Input FC(F)(F)c1ccc(Nc2nc3c(C(F)(F)F)cccc3[nH]2)cc1 [Example 36] ; condition: ΔCt (5 μM) strictly below 5. Does it hold?
0.0

Input FC(F)(F)c1cc(C(F)(F)F)c2nc(NC3CCOCC3)[nH]c2c1 [Example 7] ; condition: ΔCt (5 μM) strictly below 5. Does it hold?
1.0

Please look at the following compound next.
Input O=S1(=O)CCC(Nc2nc3c(C(F)(F)F)cc(C(F)(F)F)cc3[nH]2)C1 (stereo not drawn) [Example 20] ; condition: ΔCt (5 μM) strictly below 5. Does it hold?
1.0

###

The entries below come with measured inhibition at 5 µM values attached.
System: SARS-CoV-2
procedureText: cell-based anti-viral assay using Vero E6 cell line, viral RNA by qRT-PCR
cond: Severe acute respiratory syndrome coronavirus 2, Vero C1008; 5 μM compound, Vero E6 cells, 48 h, calculated from ΔCt; read-out: % SARS-CoV-2 Inactivation (5 μM)

Give the observed inhibition at 5 µM of Fc1cccc(Nc2nc3c(C(F)(F)F)cc(C(F)(F)F)cc3[nH]2)c1 [Example 24] for SARS-CoV-2.
> 90%

Give the observed inhibition at 5 µM of FC(F)(F)Oc1cccc(Nc2nc3c(C(F)(F)F)cc(C(F)(F)F)cc3[nH]2)c1 [Example 22] for SARS-CoV-2.
99%

Give the observed inhibition at 5 µM of O=S1(=O)CCC(Nc2nc3c(C(F)(F)F)cc(C(F)(F)F)cc3[nH]2)C1 (stereo not drawn) [Example 20] for SARS-CoV-2.
> 90%

Give the observed inhibition at 5 µM of CN(c1cccc(C(F)(F)F)c1)c1nc2c(C(F)(F)F)cc(C(F)(F)F)cc2[nH]1 [Example 40] for SARS-CoV-2.
> 99.9%

Give the observed inhibition at 5 µM of Fc1ccccc1Nc1nc2c(C(F)(F)F)cc(C(F)(F)F)cc2[nH]1 [Example 23] for SARS-CoV-2.
> 95%

Further cases:
Give the observed inhibition at 5 µM of COc1ccc2nc(Nc3cc(C(F)(F)F)cc(C(F)(F)F)c3)[nH]c2c1 [Example 37] for SARS-CoV-2.
> 90%

Give the observed inhibition at 5 µM of FC(F)(F)c1cccc(Nc2nc3c(C(F)(F)F)cc(C(F)(F)F)cc3[nH]2)c1 [Example 14] for SARS-CoV-2.
100%

Give the observed inhibition at 5 µM of FC(F)(F)c1cc(C(F)(F)F)c2nc(Nc3ccc(Cl)cc3)[nH]c2c1 [Example 2] for SARS-CoV-2.
> 95%
